Tested on: IFNγ-induced STAT1 phosphorylation (pSTAT1) in B16F10 cells
PROTOCOL DESCRIPTION: B16F10 Phospho-STAT1 HTRF proximal pharmacodynamic (PD) assay
Format: cell-based, murine
TEST CONTEXT: B16-F10; Table 2; 3 hours compound, then mouse IFNγ 100 nM 10 minutes; top dose 50 μM; read-out: B16F10 IFNγ Induced pSTAT1 EC50
pEC50: −log10 of the molar value.

{"MOLECULE": "CC(CN[C@@H]1CSc2cc(O)c(N3CC(=O)NS3(=O)=O)c(F)c2C1)C1CC1 (stereo partly drawn) [Compound 133]", "SYSTEM TESTED": "IFNγ-induced STAT1 phosphorylation (pSTAT1) in B16F10 cells", "RELATION SYMBOL": "=", "pEC50": 6.12}
{"MOLECULE": "O=C1CN(c2c(O)cc3c(c2F)C[C@H](NCC2CC(c4ccccc4)C2)CS3)S(=O)(=O)N1 (stereo partly drawn) [Compound 135]", "SYSTEM TESTED": "IFNγ-induced STAT1 phosphorylation (pSTAT1) in B16F10 cells", "RELATION SYMBOL": "=", "pEC50": 6.16}
{"MOLECULE": "O=C1CN(c2c(O)cc3c(c2F)C[C@H](NCC2(CF)CC2)CS3)S(=O)(=O)N1 [Compound 128]", "SYSTEM TESTED": "IFNγ-induced STAT1 phosphorylation (pSTAT1) in B16F10 cells", "RELATION SYMBOL": "=", "pEC50": 4.59}
{"MOLECULE": "CC(C)CCN[C@@H]1CSc2cc(O)c(N3CC(=O)NS3(=O)=O)c(F)c2C1 [Compound 103]", "SYSTEM TESTED": "IFNγ-induced STAT1 phosphorylation (pSTAT1) in B16F10 cells", "RELATION SYMBOL": "=", "pEC50": 6.28}
{"MOLECULE": "O=C1CN(c2c(O)cc3c(c2F)C[C@H](NCCC2(CO)CCC2)CS3)S(=O)(=O)N1 [Compound 104]", "SYSTEM TESTED": "IFNγ-induced STAT1 phosphorylation (pSTAT1) in B16F10 cells", "RELATION SYMBOL": "=", "pEC50": 5.47}
{"MOLECULE": "COCCCN[C@@H]1CSc2cc(O)c(N3CC(=O)NS3(=O)=O)c(F)c2C1 [Compound 130]", "SYSTEM TESTED": "IFNγ-induced STAT1 phosphorylation (pSTAT1) in B16F10 cells", "RELATION SYMBOL": "=", "pEC50": 5.39}
{"MOLECULE": "CC(C)(CO)CCN[C@@H]1CSc2cc(O)c(N3CC(=O)NS3(=O)=O)c(F)c2C1 [Compound 106]", "SYSTEM TESTED": "IFNγ-induced STAT1 phosphorylation (pSTAT1) in B16F10 cells", "RELATION SYMBOL": "=", "pEC50": 4.92}
{"MOLECULE": "CC(CCN[C@@H]1CSc2cc(O)c(N3CC(=O)NS3(=O)=O)c(F)c2C1)c1ccccc1 (stereo partly drawn) [Compound 134]", "SYSTEM TESTED": "IFNγ-induced STAT1 phosphorylation (pSTAT1) in B16F10 cells", "RELATION SYMBOL": "<", "pEC50": 4.30}
{"MOLECULE": "CC(C)C(C)CN[C@@H]1CSc2cc(O)c(N3CC(=O)NS3(=O)=O)c(F)c2C1 (stereo partly drawn) [Compound 115]", "SYSTEM TESTED": "IFNγ-induced STAT1 phosphorylation (pSTAT1) in B16F10 cells", "RELATION SYMBOL": "=", "pEC50": 5.74}
{"MOLECULE": "CCC(CC)CCN[C@@H]1CSc2cc(O)c(N3CC(=O)NS3(=O)=O)c(F)c2C1 [Compound 119]", "SYSTEM TESTED": "IFNγ-induced STAT1 phosphorylation (pSTAT1) in B16F10 cells", "RELATION SYMBOL": "=", "pEC50": 5.18}
{"MOLECULE": "O=C1CN(c2c(O)cc3c(c2F)C[C@H](NCCC2CCCC2)CS3)S(=O)(=O)N1 [Compound 120]", "SYSTEM TESTED": "IFNγ-induced STAT1 phosphorylation (pSTAT1) in B16F10 cells", "RELATION SYMBOL": "=", "pEC50": 6.00}
{"MOLECULE": "CCCN[C@@H]1CSc2cc(O)c(N3CC(=O)NS3(=O)=O)c(F)c2C1 [Compound 107]", "SYSTEM TESTED": "IFNγ-induced STAT1 phosphorylation (pSTAT1) in B16F10 cells", "RELATION SYMBOL": "=", "pEC50": 5.40}
